Biological target: T1, human CD40-Fc protein (amino acid residue 21-193 of SEQ ID NO: 67 linked to N-terminus of amino acid residue … (human, biotin-labeled in the capture ELISA and in the benchmark blocking ELISA; unlabeled when coated in the ligand blocking ELISA)
T1 construct: also called biotin-labeled human CD40-Fc; human CD40-Fc-biotin
T1 sequence (chain, as listed by the source): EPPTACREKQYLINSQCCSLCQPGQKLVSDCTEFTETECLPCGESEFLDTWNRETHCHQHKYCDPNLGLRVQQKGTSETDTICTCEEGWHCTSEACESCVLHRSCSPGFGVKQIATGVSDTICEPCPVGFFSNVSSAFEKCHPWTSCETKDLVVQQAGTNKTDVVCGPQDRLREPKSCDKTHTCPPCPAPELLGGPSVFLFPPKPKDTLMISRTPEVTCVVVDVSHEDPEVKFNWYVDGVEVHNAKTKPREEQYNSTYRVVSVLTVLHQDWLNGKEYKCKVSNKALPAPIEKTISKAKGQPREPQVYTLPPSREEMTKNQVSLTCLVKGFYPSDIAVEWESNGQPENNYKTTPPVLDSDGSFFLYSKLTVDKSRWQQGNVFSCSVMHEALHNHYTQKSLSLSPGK
Test: capture ELISA, biotin human CD40-Fc; mAb at 10000 ng/mL
measured_metric: absorbance at 450 nm (OD450)
Could you give me the number in OD450? Just the number is fine.

Answered examples (3):
{"binder": "humanized antibody huC1C1-V4 (antibody, human IgG1, kappa, V domains shown, Human IgG1/kappa) VH: EVQLVESGGGVVQPGRSLRLSCAASGFTFSNYGMSWVRQAPGKGLEWVASISSGGDDTYYPDNVKGRCTISRDNSKNTLYLQMNSLRAEDTAVYYCTRAGGKAMDYWGQGTLVTVSS VL: EIVLTQSPATLSLSPGERATLSCRASQSIRDNLHWYQQKPGQSPRLLIYYASQSISGIPARFSGSGSGTDFTLTISSLEPEDFAVYFCQQFNSWPLTFGQGTKVEIKR", "absorbance at 450 nm, OD450": 1.84}
{"binder": "humanized antibody huC1C1-V3 (antibody, human IgG1, kappa, V domains shown, Human IgG1/kappa) VH: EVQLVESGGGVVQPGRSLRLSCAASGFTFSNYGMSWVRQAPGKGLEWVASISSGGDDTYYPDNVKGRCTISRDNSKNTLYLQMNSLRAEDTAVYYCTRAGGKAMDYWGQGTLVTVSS VL: EIVLTQSPATLSLSPGERATLSCRASQSIRDNLHWYQQKPGQAPRLLINYASQSISGIPARFSGSGSGTDFTLTISSLEPEDFAVYFCQQFNSWPLTFGQGTKVEIKR", "absorbance at 450 nm, OD450": 1.8}
{"binder": "humanized antibody huC1C1-V5 (antibody, human IgG1, kappa, V domains shown, Human IgG1/kappa; also called humanized C1C1-V5) VH: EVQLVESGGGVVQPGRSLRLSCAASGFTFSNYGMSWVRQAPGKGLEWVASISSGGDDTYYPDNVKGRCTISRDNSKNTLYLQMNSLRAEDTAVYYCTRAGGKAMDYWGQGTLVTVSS VL: EIVLTQSPATLSLSPGERATLSCRASQSIRDNLHWYQQKPGQSPRLLINYASQSISGIPARFSGSGSGTDFTLTISSLEPEDFAVYYCQQFNSWPLTFGQGTKVEIKR", "absorbance at 450 nm, OD450": 1.77}

Dear colleague, I am looking for the recorded absorbance at 450 nm of the following binder: chimeric antibody C1C1 (antibody, human IgG1, kappa, V domains shown, also called chC1C1; chimeric C1C1) VH: EVKLVESGGGLVKPGASLKLSCAASGFTFSNYGMSWVRQNSDKRLEWVASISSGGDDTYYPDNVKGRCTISRENAKNTLYLEMSSLKTEDTALYYCTRAGGKAMDYWGQGTSVTVST VL: DIVLTQSPATLSVIPGNSVSLSCRASQSIRDNLHWYQQKSHESPRLLINYASQSISGIPSRFSGSGSGTDFTLTINSVETEDFGIYFCQQFNSWPLTFGGGTKLELKR 1.96
